Where these numbers come from: ChEMBL document CHEMBL1857833

Below: a set of entries, each annotated with reported MSD.
- Tested on: Trypanosoma brucei
- Assay Explanation: DNDI: Mean survival time in days (MSD) of mice after intraperitoneal injection of Human African Trypanosomiasis (HAT), EATRO 110, in vivo at 5 mg/kg/day for 4 days.
- Type: functional, Mus musculus

[
  {
    "Molecule": "O/N=C(\\NCC1CC1)c1ccccc1-c1ccccc1",
    "MSD / days": 4
  },
  {
    "Molecule": "CCCCc1ccc(-c2nc(CNC3CCCCCC3)co2)cc1",
    "MSD / days": 4
  },
  {
    "Molecule": "O/N=C(/NC1CCCCC1)c1cccnc1Oc1ccccc1Cl",
    "MSD / days": 4
  },
  {
    "Molecule": "COc1ccc(/C(=N/O)NC2CCCCC2)cc1",
    "MSD / days": 4.3
  },
  {
    "Molecule": "COc1ccccc1Oc1ncccc1/C(=N\\O)NC1CCCCC1",
    "MSD / days": 4
  },
  {
    "Molecule": "CCCCc1ccc(-c2nc(CNC3CC(C)CC(C)(C)C3)co2)cc1 (stereo unspecified)",
    "MSD / days": 4
  }
]

====

Below: a set of entries, each annotated with reported IC50 at 24 h.
- Assay Explanation: DNDI: Cytotoxicity against L929 mouse fibroblasts, CYTO-SP, 24 hour
- Format: toxicity, cell-based
- Particulars: mouse, L929 mouse fibroblasts

[
  {
    "Compound": "C=CCO/N=C/c1ccc(OC)cc1",
    "IC50 at 24 h": "> 50 µg/mL"
  },
  {
    "Compound": "CC1(C)[C@H]2CC[C@@H](CNCc3coc(-c4sccc4Cl)n3)[C@@H]1C2",
    "IC50 at 24 h": "> 50 µg/mL"
  },
  {
    "Compound": "CC1CCC(N/C(=N\\O)c2cccnc2Oc2ccccc2OC(C)C)CC1 (stereo not given)",
    "IC50 at 24 h": "> 50 µg/mL"
  },
  {
    "Compound": "COc1ccc(C(=O)NC2CCCCC2)cc1",
    "IC50 at 24 h": "> 50 µg/mL"
  },
  {
    "Compound": "CCCCC[C@@H](C)NCc1coc(-c2ccc(Cl)cc2)n1",
    "IC50 at 24 h": "> 50 µg/mL"
  },
  {
    "Compound": "CCCCCC(C)NCc1coc(-c2ccc(-c3ccccc3)cc2)n1 (stereo not given)",
    "IC50 at 24 h": "> 50 µg/mL"
  },
  {
    "Compound": "COc1cccc(/C(N)=N/O)c1",
    "IC50 at 24 h": "> 50 µg/mL"
  },
  {
    "Compound": "CC1CC(NCc2coc(-c3ccc(-c4ccccc4)cc3)n2)CC(C)(C)C1 (stereo not given)",
    "IC50 at 24 h": "7.93 µg/mL"
  },
  {
    "Compound": "Cc1ccc(Oc2ncccc2/C(=N/O)NC2CCC(C)CC2)c2c1CCC2 (stereo not given)",
    "IC50 at 24 h": "32.5 µg/mL"
  },
  {
    "Compound": "CC(C)Oc1ccccc1Oc1ncccc1/C(=N/O)NC1CCCCC1",
    "IC50 at 24 h": "> 50 µg/mL"
  },
  {
    "Compound": "O/N=C(\\NC1CCCCC1)c1cccnc1",
    "IC50 at 24 h": "50 µg/mL"
  },
  {
    "Compound": "CCCCc1ccc(-c2nc(C(C)(C)C)co2)cc1",
    "IC50 at 24 h": "> 50 µg/mL"
  },
  {
    "Compound": "COc1ccc(/C=N/Oc2ccccc2)cc1",
    "IC50 at 24 h": "> 50 µg/mL"
  },
  {
    "Compound": "COc1ccc(/C=N/OCc2ccccc2)cc1",
    "IC50 at 24 h": "> 50 µg/mL"
  },
  {
    "Compound": "CCO/N=C/c1ccc(OC)cc1",
    "IC50 at 24 h": "> 50 µg/mL"
  },
  {
    "Compound": "CCCCCC(C)NCc1coc(-c2ccccc2O)n1 (stereo not given)",
    "IC50 at 24 h": "24 µg/mL"
  },
  {
    "Compound": "COc1ccc(Oc2ncccc2/C(=N/O)NC2CCCC2)cc1",
    "IC50 at 24 h": "> 50 µg/mL"
  },
  {
    "Compound": "COc1ccccc1/C(N)=N/O",
    "IC50 at 24 h": "> 50 µg/mL"
  },
  {
    "Compound": "CCCCCC(C)NCc1coc(-c2cccc(Cl)c2)n1 (stereo not given)",
    "IC50 at 24 h": "14 µg/mL"
  },
  {
    "Compound": "CCCCCC(C)NCc1coc(-c2ccc(OCCC)cc2)n1 (stereo not given)",
    "IC50 at 24 h": "27.5 µg/mL"
  },
  {
    "Compound": "CC1(C)[C@H]2CC[C@@H](CNCc3coc(-c4ccc(Br)cc4)n3)[C@@H]1C2",
    "IC50 at 24 h": "> 50 µg/mL"
  },
  {
    "Compound": "Cc1ccc(Oc2ncccc2/C(=N/O)NCC(C)C)c2c1CCC2",
    "IC50 at 24 h": "> 50 µg/mL"
  },
  {
    "Compound": "O/N=C(\\Nc1ccccc1)c1ccccc1-c1ccccc1",
    "IC50 at 24 h": "36.9 µg/mL"
  },
  {
    "Compound": "O=C(NC1CCCCC1)c1ccccc1-c1ccccc1",
    "IC50 at 24 h": "> 50 µg/mL"
  },
  {
    "Compound": "CCCCCC(C)NCc1coc(-c2ccc(F)c(F)c2)n1 (stereo not given)",
    "IC50 at 24 h": "37 µg/mL"
  },
  {
    "Compound": "CCCCCC(C)NCc1coc(-c2ccc(Br)cc2)n1 (stereo not given)",
    "IC50 at 24 h": "> 50 µg/mL"
  },
  {
    "Compound": "O/N=C(\\NC1CCCCC1)c1cc(F)cc(F)c1",
    "IC50 at 24 h": "> 50 µg/mL"
  },
  {
    "Compound": "O/N=C(\\NC1CCCCC1)c1ccc(Oc2ccc(Cl)cc2)nc1",
    "IC50 at 24 h": "30.8 µg/mL"
  },
  {
    "Compound": "Cc1ccc(/C(=N/O)NCC(C)(C)C)c(Oc2ccc3ccccc3c2)n1",
    "IC50 at 24 h": "34 µg/mL"
  },
  {
    "Compound": "CCCCCC(C)NCc1noc(-c2ccccc2)n1 (stereo not given)",
    "IC50 at 24 h": "50 µg/mL"
  },
  {
    "Compound": "CCCOc1ccc(-c2nc(CN[C@@H]3C[C@@H]4C[C@H]([C@H]3C)C4(C)C)co2)cc1",
    "IC50 at 24 h": "15.7 µg/mL"
  },
  {
    "Compound": "CC(C)(C)CN/C(=N\\O)c1cccnc1Oc1c(F)cccc1F",
    "IC50 at 24 h": "45.4 µg/mL"
  },
  {
    "Compound": "O=C(O)c1coc(-c2ccccc2)n1",
    "IC50 at 24 h": "> 50 µg/mL"
  },
  {
    "Compound": "CC1(C)[C@H]2CC[C@@H](CNCc3ccc(-c4ccccc4)s3)[C@@H]1C2",
    "IC50 at 24 h": "> 50 µg/mL"
  },
  {
    "Compound": "CCC(C)(C)N/C(=N\\O)c1cccnc1Oc1ccc2ccccc2c1",
    "IC50 at 24 h": "> 50 µg/mL"
  },
  {
    "Compound": "COc1cc(C)ccc1Oc1nc(C)ccc1/C(=N/O)NCC1CC1",
    "IC50 at 24 h": "> 50 µg/mL"
  },
  {
    "Compound": "CCCCCC(C)NCc1coc(-c2ccc(SC(F)(F)F)cc2)n1 (stereo not given)",
    "IC50 at 24 h": "> 50 µg/mL"
  },
  {
    "Compound": "COc1ccccc1Oc1ncccc1/C(=N\\O)NC1CCCCC1",
    "IC50 at 24 h": "> 50 µg/mL"
  },
  {
    "Compound": "CC1CCCC(NCc2coc(-c3ccccc3Br)n2)C1C (stereo not given)",
    "IC50 at 24 h": "> 50 µg/mL"
  },
  {
    "Compound": "CCCCCC(C)NCc1coc(-c2ccccc2F)n1 (stereo not given)",
    "IC50 at 24 h": "13 µg/mL"
  },
  {
    "Compound": "CCc1ccccc1N/C(=N\\O)c1ccc(OC)cc1",
    "IC50 at 24 h": "> 50 µg/mL"
  },
  {
    "Compound": "COc1ccc(/C(=N\\O)Nc2ccccc2)cc1",
    "IC50 at 24 h": "> 50 µg/mL"
  },
  {
    "Compound": "CCCCCC(C)NCc1coc(-c2ccc(F)cc2F)n1 (stereo not given)",
    "IC50 at 24 h": "> 50 µg/mL"
  },
  {
    "Compound": "COc1ccc(/C(=N/O)NC2CCCCC2)cc1",
    "IC50 at 24 h": "> 50 µg/mL"
  },
  {
    "Compound": "O/N=C(\\NC1CCCCC1)c1cccc(-c2ccccc2)c1",
    "IC50 at 24 h": "35 µg/mL"
  },
  {
    "Compound": "CCc1ccc(N/C(=N/O)c2ccccc2-c2ccccc2)cc1",
    "IC50 at 24 h": "15.6 µg/mL"
  },
  {
    "Compound": "COc1ccc(/C(CNC2CCCCC2)=N/O)cc1",
    "IC50 at 24 h": "> 50 µg/mL"
  },
  {
    "Compound": "CCCCCC(C)NCc1cc(-c2ccccc2)n(C)n1 (stereo not given)",
    "IC50 at 24 h": "50 µg/mL"
  },
  {
    "Compound": "CSc1ccccc1Oc1ncccc1C#N",
    "IC50 at 24 h": "> 50 µg/mL"
  },
  {
    "Compound": "COc1ccccc1/C(=N/O)NC1CCCCC1",
    "IC50 at 24 h": "> 50 µg/mL"
  }
]
